System: U2OS
Experiment: Multiplex assay against U2OS
Format: toxicity, cell-based
Conditions: human, 12 h, 1 µM, compound concentration 1 uM, replicate 2
RECORDED METRIC: Population Apoptotic (%)

1. C[C@H](N)COC(=O)[C@@H](CCCCN)NC(=O)Cc1c(-c2ccc3ccccc3c2)[nH]c2c1ccc1ccccc12
75%
2. Cc1onc(-c2ccccc2Cl)c1C(=O)N(C)c1ccc(Cl)cc1
78%
3. CN1CCN(c2cc(-c3ccccc3)nc(N)n2)CC1
62%
4. CC(=O)Nc1cccc2c1c(Sc1ccc(Cl)cc1)c(C)n2CC(=O)O [AZD1981]
83%
5. CC(C)COc1ccc(CNC(=O)N(Cc2ccc(F)cc2)C2CCN(C)CC2)cc1 [PIMAVANSERIN]
100%
6. Cc1cnc(-c2cc(N3CCN(C(=O)CCS(C)(=O)=O)CC3)ncc2Cl)c(C)c1
100%
7. Br.CS(=O)(=O)Nc1c(O)ccc2c1CCCC2C1=NCCN1 (stereo not given)
80%
8. COC[C@@H](c1ccc(C(F)(F)F)cc1)N1CCN(C2(C)CCN(C(=O)c3c(C)ncnc3C)CC2)C[C@@H]1C.O=C(O)/C=C\C(=O)O [VICRIVIROC MALEATE]
81%
9. CCCCC1=NC2(CCCC2)C(=O)N1Cc1ccc(-c2ccccc2-c2nnn[nH]2)cc1 [IRBESARTAN]
77%
10. CCCCCC(O)/C=C/[C@H]1C(=O)CC(O)C1C/C=C\CCCC(=O)O (stereo not given in full)
88%
